Quick reference: IC50 of the listed items.
# System: A2780
# assay text: Cytotoxicity against human A2780 cells
# Format: functional, cell-based
Numbered stars: 1 amine (or outer) side, 2 acyl side, 3 side chain; on linkers, the order of the positions; unused ones are H or OH. Bridge positions count the residues as written; N and C are the ends. Square brackets hold non-standard residues; d marks the D form. Peptide text beside a SMILES is read from it. I, II: the chains in the order shown. Actinocin(1to9) = Cc1c2oc3c(C)ccc(C(=O)[*:2])c3nc-2c(C(=O)[*:1])c(N)c1=O; NMeV = CN[C@H](C(=O)O)C(C)C; Sar = CNCC(=O)O
Just the number in µg/mL, nothing appended.

compound	unit abbreviation	reported measurement
Cc1c2oc3c(C)ccc(C(=O)N[C@@H]4C(=O)N[C@H](C(C)C)C(=O)N5CCC[C@H]5C(=O)N(C)CC(=O)N(C)[C@@H](C(C)C)C(=O)O[C@@H]4C)c3nc-2c(C(=O)N[C@@H]2C(=O)N[C@H](C(C)C)C(=O)N3CCC[C@H]3C(=O)N(C)CC(=O)N(C)[C@@H](C(C)C)C(=O)O[C@@H]2C)c(N)c1=O [DACTINOMYCIN] (I: T[dV]P[Sar][NMeV] / II: T[dV]P[Sar][NMeV]; ester I:1-I:C, II:1-II:C; linker I:N-II:N via Actinocin(1to9))	µg/mL	0.002
C=C(C)[C@@H]1CC[C@]2(C)CC[C@]3(C)[C@H](CC[C@@H]4[C@@]5(C)CC[C@H](O)C(C)(C)[C@@H]5CC[C@]43C)[C@@H]12	µg/mL	16.2
CC(=O)O[C@H]1CC[C@]2(C)[C@H]3CC=C4[C@@H]5CC(C)(C)CC[C@]5(C)CC[C@@]4(C)[C@]3(C)CC[C@H]2C1(C)C [beta-AMYRIN ACETATE]	µg/mL	12.1

Fill in the blank: the reported IC50 of "CCCCCCCCCCCCCCCC(=O)O[C@H]1CC[C@]2(C)[C@H]3CC=C4[C@@H]5CC(C)(C)CC[C@]5(C)CC[C@@]4(C)[C@]3(C)CC[C@H]2C1(C)C" is ____.
13.4

Fill in the blank: the reported IC50 of C=C(C)[C@@H]1CC[C@]2(C)CC[C@]3(C)[C@H](CC[C@@H]4[C@@]5(C)CC[C@H](OC(C)=O)C(C)(C)[C@@H]5CC[C@]43C)[C@@H]12 [LUPENYL ACETATE] is ____.
15

* * *

# Tested on: A2780
# assay text: Cytotoxicity against human A2780 cells
# Format: functional, cell-based
Quick reference: IC50 of the listed items.
Just the number in µg/mL, nothing appended.

Worked set:
compound	property label	unit abbreviation	reported measurement
CCCCCCCCCCCCCCCC(=O)O[C@H]1CC[C@]2(C)[C@H]3CC=C4[C@@H]5CCCC(C)(C)[C@@]5(C)CC[C@@]4(C)[C@]3(C)CC[C@H]2C1(C)C [KAIRATENYL PALMITATE]	IC50	µg/mL	10
CCCCCCCCCCCCCCCC(=O)O[C@H]1CC[C@]2(C)[C@H]3CC=C4[C@@H]5[C@@H](C)[C@H](C)CC[C@@]5(C)CC[C@@]4(C)[C@]3(C)CC[C@H]2C1(C)C	IC50	µg/mL	15.4

Fill in the blank: the reported IC50 of C=C(C)[C@H]1CC[C@]2(C)C3CC[C@@H]4[C@@]5(C)CC[C@H](OC(=O)CCCCCCCCCCCCCCC)C(C)(C)[C@@H]5CC[C@@]4(C)[C@]3(C)CC[C@@H]12 (stereo partly drawn) [HOPENYL PALMITATE] is ____.
11.6
